# test.system: A*11:01, P04439
# condition.context: modification not given
parameter.measured: IC50 (nM)
Hi! Could you send only the number? It should be in nM, unit omitted.

IC50 lookup needed for VTFKNPHAK […, serotype 2] , thanks. 17
